# measured.target: 5-HT1A receptor (Homo sapiens (Human), UniProt P08908)
# procedure.text: FLIPR Ca2+ flux functional assay at 5-HT1A (CHO cells)
observation.type: EC50

# compound, observed.measurement
rows = [
    ("COc1cc(CCCC(F)(F)F)c(OC)nc1CCN", "> 100 µM"),
    ("CCCc1cc(OC)c(CCN)nc1OC", "> 100 µM"),
    ("CCCCCc1nc(OC)c(CC(N)CC)nc1OC (centres unmarked)", "33.3 µM"),
    ("CCc1cc(OC)c(CCN)nc1OC", "12 µM"),
    ("COc1cc(Br)c(OC)nc1CC(C)N (centres unmarked)", "> 100 µM"),
    ("CCSc1cc(OC)c(CCN)nc1OC", "> 100 µM"),
    ("COc1cc(C2CC2)c(OC)nc1CC(C)N (centres unmarked)", "> 100 µM"),
    ("CCc1cc(OC)c(CC(C)N)nc1OC (centres unmarked)", "> 100 µM"),
    ("COc1cc(Cl)c(OC)nc1CC(C)N (centres unmarked)", "> 100 µM"),
    ("COc1ccccc1CNCCc1nc(OC)c(Br)cc1OC", "> 100 µM"),
    ("CCSc1cc(OC)c(CC(N)CC)nc1OC (centres unmarked)", "> 100 µM"),
]
